Tested on: HEK-293 cells
Assay: HEK-293 growth inhibition assay
Assay type: cell-based
Conditions: 3 days, CTG
Assignment: determine reported IC50 for the given compounds.

Item: CNC(=O)N1CCc2c(c(N3CCCc4cc(-c5cnn(C)c5)c(C(F)F)cc43)nn2C2CCN(CCOc3ncc(C(=O)NC4C(C)(C)C(Oc5ccc(C#N)c(Cl)c5)C4(C)C)cn3)CC2)C1 (stereo not drawn) Test system: HEK-293 cells Read-out: IC50 Value: ?
> 10 µM

Item: CNC(=O)N1CCc2c(c(N3CCCc4cc(-c5cnn(C)c5)c(C(F)F)cc43)nn2C2CCN(C(=O)COCCCN3CCN(c4ncc(C(=O)NC5C(C)(C)C(Oc6ccc(C#N)c(Cl)c6)C5(C)C)cn4)CC3)CC2)C1 (stereo not drawn) Test system: HEK-293 cells Read-out: IC50 Value: ?
> 10 µM

Item: CC(=O)N1CCc2c(c(Nc3ccc(-c4cnn(C)c4)cc3F)nn2C2CCN(C(=O)CN3CCN(c4ncc(C(=O)NC5C(C)(C)C(Oc6ccc(C#N)c(Cl)c6)C5(C)C)cn4)CC3)CC2)C1 (stereo not drawn) Test system: HEK-293 cells Read-out: IC50 Value: ?
> 10 µM

Item: CC(=O)N1CCc2c(c(N3CCCc4cc(-c5cnn(C)c5)c(C(F)F)cc43)nn2C2CCN(C3CCN(c4ncc(C(=O)NC5C(C)(C)C(Oc6ccc(C#N)c(Cl)c6)C5(C)C)cn4)CC3)CC2)C1 (stereo not drawn) Test system: HEK-293 cells Read-out: IC50 Value: ?
> 10 µM

Item: CNC(=O)N1CCc2c(c(N3CCCc4cc(-c5cnn(C)c5)c(C(F)F)cc43)nn2C2CCN(C(=O)CN3CCN(c4ncc(C(=O)NC5C(C)(C)C(Oc6ccc(C#N)c(Cl)c6)C5(C)C)cn4)CC3)CC2)C1 (stereo not drawn) Test system: HEK-293 cells Read-out: IC50 Value: ?
> 10 µM

Item: CC(=O)N1CCc2c(c(N3CCCc4cc(-c5cnn(C)c5)c(C(F)F)cc43)nn2C2CCN(C(=O)CC3CCN(c4ncc(C(=O)NC5C(C)(C)C(Oc6ccc(C#N)c(Cl)c6)C5(C)C)cn4)CC3)CC2)C1 (stereo not drawn) Test system: HEK-293 cells Read-out: IC50 Value: ?
> 10 µM

Item: COc1cc(OC2C(C)(C)C(NC(=O)c3ccc(N4CC(C)C(CN5CCC(n6nc(N7CCCc8cc(-c9cnn(C)c9)c(C(F)F)cc87)c7c6CCN(C(C)=O)C7)CC5)C(C)C4)cc3)C2(C)C)ccc1C#N (stereo not drawn) Test system: HEK-293 cells Read-out: IC50 Value: ?
> 1 µM

Item: CNC(=O)N1CCc2c(c(N3CCCc4cc(-c5cnn(C)c5)c(C(F)F)cc43)nn2C2CCN(C(=O)COCCOCCN3CCN(c4ncc(C(=O)NC5C(C)(C)C(Oc6ccc(C#N)c(Cl)c6)C5(C)C)cn4)CC3)CC2)C1 (stereo not drawn) Test system: HEK-293 cells Read-out: IC50 Value: ?
> 10 µM

Item: CC(=O)N1CCc2c(c(N3CCCc4cc(-c5cnn(C)c5)c(C(F)F)cc43)nn2C2CCN(C(=O)COC3CCN(c4ncc(C(=O)NC5C(C)(C)C(Oc6ccc(C#N)c(Cl)c6)C5(C)C)cn4)CC3)CC2)C1 (stereo not drawn) Test system: HEK-293 cells Read-out: IC50 Value: ?
> 10 µM

Item: CNC(=O)N1CCc2c(c(N3CCCc4cc(-c5cnn(C)c5)c(C(F)F)cc43)nn2C2CCN(C(=O)COCCCOCC3CCN(c4ncc(C(=O)NC5C(C)(C)C(Oc6ccc(C#N)c(Cl)c6)C5(C)C)cn4)CC3)CC2)C1 (stereo not drawn) Test system: HEK-293 cells Read-out: IC50 Value: ?
> 10 µM

Item: CC(=O)N1CCc2c(c(N3CCCc4cc(-c5cnn(C)c5)c(C(F)F)cc43)nn2C2CCN(C[C@@H]3CCN(c4ncc(C(=O)NC5C(C)(C)C(Oc6ccc(C#N)c(Cl)c6)C5(C)C)cn4)C[C@@H]3C)CC2)C1 (stereo partly drawn) Test system: HEK-293 cells Read-out: IC50 Value: ?
> 1 µM

Item: CC(=O)N1CCc2c(c(-c3cccc4cc(-c5ccc(OCc6ncc(C(=O)NC7C(C)(C)C(Oc8ccc(C#N)c(Cl)c8)C7(C)C)cn6)nc5)ncc34)nn2C2CCOCC2)C1 (stereo not drawn) Test system: HEK-293 cells Read-out: IC50 Value: ?
> 10 µM

Item: CNC(=O)N1CCc2c(c(N3CCCc4cc(-c5cnn(C)c5)c(C(F)F)cc43)nn2C2CCN(C(=O)CN3CCN(c4ccc(C(=O)NC5C(C)(C)C(Oc6ccc(C#N)c(Cl)c6)C5(C)C)cc4)CC3)CC2)C1 (stereo not drawn) Test system: HEK-293 cells Read-out: IC50 Value: ?
> 10 µM

Item: CNC(=O)N1CCc2c(c(N3CCCc4cc(-c5cnn(C)c5)c(C(F)F)cc43)nn2C2CCN(C(=O)COCCOC3CCN(c4ncc(C(=O)NC5C(C)(C)C(Oc6ccc(C#N)c(Cl)c6)C5(C)C)cn4)CC3)CC2)C1 (stereo not drawn) Test system: HEK-293 cells Read-out: IC50 Value: ?
> 10 µM

Item: CNC(=O)N1CCc2c(c(N3CCCc4cc(-c5cnn(C)c5)c(C(F)F)cc43)nn2C2CCN(C(=O)COCCC3CCN(c4ncc(C(=O)NC5C(C)(C)C(Oc6ccc(C#N)c(Cl)c6)C5(C)C)cn4)CC3)CC2)C1 (stereo not drawn) Test system: HEK-293 cells Read-out: IC50 Value: ?
> 10 µM

Item: CNC(=O)N1CCc2c(c(N3CCCc4cc(-c5cnn(C)c5)c(C(F)F)cc43)nn2C2CCN(CC3CCN(c4ncc(C(=O)NC5C(C)(C)C(Oc6ccc(C#N)c(Cl)c6)C5(C)C)cn4)CC3)CC2)C1 (stereo not drawn) Test system: HEK-293 cells Read-out: IC50 Value: ?
> 10 µM

Item: CC(=O)N1CCc2c(c(N3CCCc4cc(-c5cnn(C)c5)c(C(F)F)cc43)nn2C2CCN(CC3CCN(c4ncc(C(=O)NC5C(C)(C)C(Oc6ccc(C#N)c(Cl)c6)C5(C)C)cn4)CC3)CC2)C1 (stereo not drawn) Test system: HEK-293 cells Read-out: IC50 Value: ?
> 10 µM

Item: CC(=O)N1CCc2c(c(-c3cccc4cc(-c5cnc(C(=O)NCc6ncc(C(=O)NC7C(C)(C)C(Oc8ccc(C#N)c(Cl)c8)C7(C)C)cn6)nc5)ncc34)nn2C2CCOCC2)C1 (stereo not drawn) Test system: HEK-293 cells Read-out: IC50 Value: ?
> 10 µM

---

Tested on: HEK-293 cells
Assay: HEK-293 growth inhibition assay
Format: cell-based
Conditions: 3 days, CTG
Method: Cluster plates are returned to the incubator (37*C/5% CO2) for 24 hours prior to treatment. […] Cluster plates are returned to the incubator for 3 days. After the 3-day treatment period, 100 uL media was removed from each well by aspiration and 100 uL room temperature CTG reagent (Promega Cat #G7573) is added back to each well. […] Following this shaking/incubation, cluster plates are read on a luminometer (BMG ClarioStar). […]
pIC50: −log10 of the molar value.
Assay metric: pIC50

Quick one: pIC50 of CNC(=O)N1CCc2c(c(N3CCCc4cc(-c5cnn(C)c5)c(C(F)F)cc43)nn2C2CCN(CCc3ncc(C(=O)NC4C(C)(C)C(Oc5ccc(C#N)c(Cl)c5)C4(C)C)cn3)CC2)C1 (stereo not drawn) ?
5.67

Quick one: pIC50 of CNC(=O)N1CCc2c(c(N3CCCc4cc(-c5cnn(C)c5)c(C(F)F)cc43)nn2C2CCN(C(=O)CCN3CCN(c4ncc(C(=O)NC5C(C)(C)C(Oc6ccc(C#N)c(Cl)c6)C5(C)C)cn4)CC3)CC2)C1 (stereo not drawn) ?
< 5.00

Quick one: pIC50 of CC(=O)N1CCc2c(c(-c3cccc4cc(-c5cnc(CCN(C)c6ncc(C(=O)NC7C(C)(C)C(Oc8ccc(C#N)c(Cl)c8)C7(C)C)cn6)nc5)ncc34)nn2C2CCOCC2)C1 (stereo not drawn) ?
< 5.00

Quick one: pIC50 of CNC(=O)N1CCc2c(c(N3CCCc4cc(-c5cnn(C)c5)c(C(F)F)cc43)nn2C2CCN(C(=O)CN3CCN(c4ccc(C(=O)NC5C(C)(C)C(Oc6ccc(C#N)c(Cl)c6)C5(C)C)cn4)CC3)CC2)C1 (stereo not drawn) ?
< 5.00

Quick one: pIC50 of CC(=O)N1CCc2c(c(-c3cccc4cc(-c5ccc(C(=O)NCC6CCN(c7ncc(C(=O)NC8C(C)(C)C(Oc9ccc(C#N)c(Cl)c9)C8(C)C)cn7)CC6)nc5)ncc34)nn2C2CCOCC2)C1 (stereo not drawn) ?
< 5.00

Quick one: pIC50 of COc1cc(OC2C(C)(C)C(NC(=O)c3cnc(N4CCC(CN5CCC(n6nc(N7CCCc8cc(-c9cnn(C)c9)c(C(F)F)cc87)c7c6CCN(C(C)=O)C7)CC5)C(C)(C)C4)nc3)C2(C)C)ccc1C#N (stereo not drawn) ?
< 6.00

Quick one: pIC50 of CNC(=O)N1CCc2c(c(N3CCCc4cc(-c5cnn(C)c5)c(C(F)F)cc43)nn2C2CCN(C(=O)CC3CCN(c4ncc(C(=O)NC5C(C)(C)C(Oc6ccc(C#N)c(Cl)c6)C5(C)C)cn4)CC3)CC2)C1 (stereo not drawn) ?
< 5.00

Quick one: pIC50 of CC(=O)N1CCc2c(c(N3CCCc4cc(-c5cnn(C)c5)c(C(F)F)cc43)nn2C2CCN(C(=O)CN3CCN(c4ncc(C(=O)NC5C(C)(C)C(Oc6ccc(C#N)c(Cl)c6)C5(C)C)cn4)CC3)CC2)C1 (stereo not drawn) ?
< 5.00

Quick one: pIC50 of CNC(=O)N1CCc2c(c(N3CCCc4cc(-c5cnn(C)c5)c(C(F)F)cc43)nn2C2CCN(C(=O)COC3CCN(c4ncc(C(=O)NC5C(C)(C)C(Oc6ccc(C#N)c(Cl)c6)C5(C)C)cn4)CC3)CC2)C1 (stereo not drawn) ?
< 5.00

Quick one: pIC50 of CC(=O)N1CCc2c(c(N3CCCc4cc(-c5cnn(C)c5)c(C(F)F)cc43)nn2C2CCN(C(=O)OC3CCN(c4ncc(C(=O)NC5C(C)(C)C(Oc6ccc(C#N)c(Cl)c6)C5(C)C)cn4)CC3)CC2)C1 (stereo not drawn) ?
< 5.00

Quick one: pIC50 of C[C@@H]1CC(=O)Nc2cccc(-c3ccc4c(c3)c(C3CC3)nn4CCCN3CCN(c4ncc(C(=O)NC5C(C)(C)C(Oc6ccc(C#N)c(Cl)c6)C5(C)C)cn4)CC3)c2N1 (stereo partly drawn) ?
< 5.00

Quick one: pIC50 of CC(=O)N1CCc2c(c(N3CCCc4cc(-c5cnn(C)c5)c(C(F)F)cc43)nn2C2CCN(CC3C(C)CN(c4ncc(C(=O)NC5C(C)(C)C(Oc6ccc(C#N)c(Cl)c6)C5(C)C)cn4)CC3C)CC2)C1 (stereo not drawn) ?
< 6.00

Quick one: pIC50 of CC(=O)N1CCc2c(c(N3CCCc4cc(-c5cnn(C)c5)c(C(F)F)cc43)nn2C2CCN(S(=O)(=O)C3CCN(c4ncc(C(=O)NC5C(C)(C)C(Oc6ccc(C#N)c(Cl)c6)C5(C)C)cn4)CC3)CC2)C1 (stereo not drawn) ?
< 5.00

Quick one: pIC50 of CC(=O)N1CCc2c(c(-c3cccc4cc(-c5ccc(C(=O)NCCCc6ncc(C(=O)NC7C(C)(C)C(Oc8ccc(C#N)c(Cl)c8)C7(C)C)cn6)nc5)ncc34)nn2C2CCOCC2)C1 (stereo not drawn) ?
< 5.00

Quick one: pIC50 of CNC(=O)N1CCc2c(c(N3CCCc4cc(-c5cnn(C)c5)c(C(F)F)cc43)nn2C2CCN(C(=O)COCC3CCN(c4ncc(C(=O)NC5C(C)(C)C(Oc6ccc(C#N)c(Cl)c6)C5(C)C)cn4)CC3)CC2)C1 (stereo not drawn) ?
< 5.00

Quick one: pIC50 of CC(=O)N1CCc2c(c(N3CCCc4cc(-c5cnn(C)c5)c(C(F)F)cc43)nn2C2CN(C(=O)CN3CCN(c4ncc(C(=O)NC5C(C)(C)C(Oc6ccc(C#N)c(Cl)c6)C5(C)C)cn4)CC3)C2)C1 (stereo not drawn) ?
< 5.00

Quick one: pIC50 of CNC(=O)N1CCc2c(c(N3CCCc4cc(-c5cnn(C)c5)c(C(F)F)cc43)nn2C2CCN(C(=O)COCCN3CCN(c4ncc(C(=O)NC5C(C)(C)C(Oc6ccc(C#N)c(Cl)c6)C5(C)C)cn4)CC3)CC2)C1 (stereo not drawn) ?
< 5.00

Quick one: pIC50 of CC(=O)N1CCc2c(c(N3CCCc4cc(-c5cnn(C)c5)c(C(F)F)cc43)nn2C2CCN(CC3CN(c4ncc(C(=O)NC5C(C)(C)C(Oc6ccc(C#N)c(Cl)c6)C5(C)C)cn4)C3)CC2)C1 (stereo not drawn) ?
< 5.00
